# test.target: T1, Glutathione S-transferase (GST)-tagged AITR (human, UniProt Q9Y5U5 26-139)
# T1 construct: also called GST-AITR antigen; GST-AITR analyte; not shown: Glutathione S-transferase (GST) tag
# T1 sequence (looked up): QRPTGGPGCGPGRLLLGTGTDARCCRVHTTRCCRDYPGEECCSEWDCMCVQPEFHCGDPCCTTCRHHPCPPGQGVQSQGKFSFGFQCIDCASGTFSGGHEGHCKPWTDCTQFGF
# assay.details: SPR, Fab against the AITR antigen; ratio against parental IRTCA-A
measurement.kind: KD Ratio (fold)

1. IRTCA-A15 (Clone H1F1) Fab (Fab, V domains shown) VH: QVQLVQSGTQVKMPGASVKVSCKASGYTFDDYGIGWVRQAPGQGLEWMGWISPYTHRTNSSPKLQDRVTMTTDTSTSTAYMELRSLRSDDTAVYYCARDGTYYDFWSGYFDNNAFDIWGQGTLVTVSS VL: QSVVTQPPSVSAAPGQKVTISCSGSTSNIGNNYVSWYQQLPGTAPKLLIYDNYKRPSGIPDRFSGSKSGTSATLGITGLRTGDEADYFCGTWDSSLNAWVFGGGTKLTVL
44.4
2. Parental IRTCA-A Fab (Fab, V domains shown) VH: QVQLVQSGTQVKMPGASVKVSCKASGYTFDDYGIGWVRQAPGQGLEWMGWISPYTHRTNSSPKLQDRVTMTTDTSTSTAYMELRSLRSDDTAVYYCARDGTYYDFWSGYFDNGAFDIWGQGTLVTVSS VL: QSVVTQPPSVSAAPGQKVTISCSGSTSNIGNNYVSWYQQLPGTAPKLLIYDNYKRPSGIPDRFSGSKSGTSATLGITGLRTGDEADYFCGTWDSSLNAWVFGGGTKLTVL
1
3. IRTCA-A1 (Clone L1E9) Fab (Fab, V domains shown) VH: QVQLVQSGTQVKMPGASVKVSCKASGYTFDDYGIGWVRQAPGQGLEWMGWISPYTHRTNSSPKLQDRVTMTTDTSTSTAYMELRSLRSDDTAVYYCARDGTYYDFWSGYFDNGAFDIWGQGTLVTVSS VL: QSVVTQPPSVSAAPGQKVTISCSGSTSNIGNNYVSWYQQLPGTAPKLLIYDNYKRPSGIPDRFSGSKSGTSATLGITGLRTGDEADYFCGSWESGSNAYKFGGGTKLTVL
8.2
4. IRTCA-A12 (Clone H2A10) Fab (Fab, V domains shown) VH: QVQLVQSGTQVKMPGASVKVSCKASGYTFDDYGIGWVRQAPGQGLEWMGWISPYTHRTNSSPKLQDRVTMTTDTSTSTAYMELRSLRSDDTAVYYCARDGTYYDFWSGYFDNATFDFWGQGTLVTVSS VL: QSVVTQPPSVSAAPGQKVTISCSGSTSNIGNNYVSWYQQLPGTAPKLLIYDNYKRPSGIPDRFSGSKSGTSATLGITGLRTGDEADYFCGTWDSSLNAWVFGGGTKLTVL
27.6
